Target: T1, recombinant human HER2 extracellular domain protein (human, UniProt P04626 23-652)
T1 construct: range 23-652; Range is printed for the immunogen/panning protein; also called ErbB2; recombinant HER2 protein
Assay: BLI, Protein A capture
measured metric: Kd (nM)
Numbers only; they are read as nM.

Entry Hu2117HK-Mu23 (Fc fusion, scFv-hIgG1 Fc; not shown: human IgG1 Fc) scFv: EVQLVESGGGLVQPGGSLRLSCAASGFTYSSYGMSWVRQAPGKGLEWVASISGGGSYTKYPDSVKGRFTISRDNSKNTLYLQMNSLRAEDTAVYYCARDYAGFFDVWGQGTLVTVSSGGGGSGGGGSGGGGSDIQMTQSPSSLSASVGDRVTITCRSSQSLVHSNANTYLHWYQQKPGKAPKLLIYKVSNRFSGVPSRFSGSGSGTDFTLTISSLQPEDFATYFCSQSTHVPYTFGQGTKVEIK , Kd reported as 6.67
